Reported values of Affinity ELISA CPE mutant ratio (1:9, pH 6.0/7.4) for individual entries
- assay.target: T1, Axl protein (human, UniProt P30530 26-451)
- T1 construct: extracellular domain; also called human Axl; hAxl
- T1 sequence (looked up): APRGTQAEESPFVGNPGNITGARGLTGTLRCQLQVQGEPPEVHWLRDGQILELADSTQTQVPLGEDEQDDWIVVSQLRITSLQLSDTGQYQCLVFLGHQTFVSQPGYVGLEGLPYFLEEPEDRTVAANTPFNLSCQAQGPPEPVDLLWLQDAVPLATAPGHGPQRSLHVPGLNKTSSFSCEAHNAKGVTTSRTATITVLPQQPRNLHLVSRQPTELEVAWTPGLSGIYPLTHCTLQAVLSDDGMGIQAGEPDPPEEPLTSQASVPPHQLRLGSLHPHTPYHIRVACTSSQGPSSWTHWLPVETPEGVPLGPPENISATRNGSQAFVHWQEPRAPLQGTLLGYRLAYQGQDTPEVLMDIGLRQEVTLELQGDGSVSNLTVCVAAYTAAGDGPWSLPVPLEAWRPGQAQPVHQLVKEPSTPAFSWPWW
- measurement.description: ELISA, 1:9 dilution, pH 6.0 over pH 7.4
Please reply with the bare figure in ratio and do not write the unit itself.

Field: example entries. Status: answers known.
* HC-S103Q (antibody, V domains shown) VH: EVQLVQSGAEVKKPGATVKISCKVSGYSFTGHTMNWIRQPPGKGLEWIGLIKPSNGGTSYNQKFKGRVTISADKSISTAYLQWSSLKASDTAMYYCAHGHYEQYFAMDYWGQGTLVTVSS VL: DIQMTQSPSSLSASVGDRVTITCKASQDVSSAVAWYQQKPGQAPRLLIYWASTRHTGVPSRFSGSGSGTEFTLTISSLQPDDFATYYCQEHFSTPLTFGQGTKVEIK | 2.26
* HC-Y104C (antibody, V domains shown) VH: EVQLVQSGAEVKKPGATVKISCKVSGYSFTGHTMNWIRQPPGKGLEWIGLIKPSNGGTSYNQKFKGRVTISADKSISTAYLQWSSLKASDTAMYYCAHGHYESCFAMDYWGQGTLVTVSS VL: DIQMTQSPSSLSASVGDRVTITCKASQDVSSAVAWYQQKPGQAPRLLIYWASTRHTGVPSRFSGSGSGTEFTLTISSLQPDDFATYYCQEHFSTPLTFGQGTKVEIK | 1.74

# ---- query binder ----
// fetch Affinity ELISA CPE mutant ratio (1:9, pH 6.0/7.4) given entry HC-Y104P (antibody, V domains shown) VH: EVQLVQSGAEVKKPGATVKISCKVSGYSFTGHTMNWIRQPPGKGLEWIGLIKPSNGGTSYNQKFKGRVTISADKSISTAYLQWSSLKASDTAMYYCAHGHYESPFAMDYWGQGTLVTVSS VL: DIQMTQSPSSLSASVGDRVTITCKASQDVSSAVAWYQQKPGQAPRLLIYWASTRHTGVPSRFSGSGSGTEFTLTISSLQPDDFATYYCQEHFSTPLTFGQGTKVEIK 2.42
